These measurements were taken from patent US8846937B2.

Measured pKi, listed per entry for reference.
Assayed Target: Rat Striatal Nicotinic Receptors ([^3H]MLA binding) (Rattus norvegicus, UniProt Q05941)
Construct: Whole brain, excluding cortex and cerebellum, was homogenized
Sequence (Q05941 23-502): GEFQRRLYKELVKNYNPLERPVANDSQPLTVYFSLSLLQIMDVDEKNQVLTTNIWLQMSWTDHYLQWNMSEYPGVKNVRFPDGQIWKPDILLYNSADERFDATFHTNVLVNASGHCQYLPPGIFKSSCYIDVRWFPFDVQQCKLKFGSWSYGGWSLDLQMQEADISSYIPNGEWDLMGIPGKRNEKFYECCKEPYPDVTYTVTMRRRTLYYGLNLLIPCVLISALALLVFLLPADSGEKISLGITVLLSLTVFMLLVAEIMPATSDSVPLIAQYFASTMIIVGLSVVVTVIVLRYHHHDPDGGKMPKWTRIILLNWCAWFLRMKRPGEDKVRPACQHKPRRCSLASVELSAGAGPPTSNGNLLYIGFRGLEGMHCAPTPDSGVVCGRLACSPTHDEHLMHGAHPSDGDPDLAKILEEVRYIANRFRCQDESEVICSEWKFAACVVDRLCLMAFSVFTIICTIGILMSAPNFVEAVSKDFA
Protocol: Inhibition of [^3H]methyllycaconitine (MLA) binding to brain membranes
Protocol Conditions: full concentration effect; 2.5 nM [^3H]MLA (footnote)
// returns pKi (minus log10 of molar concentration), number only

Use these answered entries as a reference point.
INSERT INTO results (compound, assayed_target, reported_property, result_number) VALUES
  ('Cc1cc[n+](CCCCCCCCc2ccccc2)cc1', 'Rat Striatal Nicotinic Receptors ([^3H]MLA binding) (Rattus norvegicus, UniProt Q05941)', 'pKi', 4.57),
  ('c1cncc(CCCCCCCCCCCCC[n+]2ccc3c(c2)CCCC3)c1', 'Rat Striatal Nicotinic Receptors ([^3H]MLA binding) (Rattus norvegicus, UniProt Q05941)', 'pKi', 5.14),
  ('CCCCc1ccc(C#CCC[n+]2ccc3c(c2)CCCC3)cc1', 'Rat Striatal Nicotinic Receptors ([^3H]MLA binding) (Rattus norvegicus, UniProt Q05941)', 'pKi', 5.43);

Consider now this further compound.
Asked: Could you share which pKi value was measured for CCCCc1ccc(CCCC[n+]2ccc3c(c2)CCCC3)cc1 ?
Given back: 4.85

* * *

Assayed Target: Rat Striatal Nicotinic Receptors ([^3H]MLA binding) (Rattus norvegicus)
Construct: Whole brain, excluding cortex and cerebellum, was homogenized; from tissue; host or cells: rat brain membranes (whole brain excluding cortex and cerebellum)
Protocol: Inhibition of [^3H]methyllycaconitine (MLA) binding to brain membranes
Protocol Conditions: % inhibition at 100 nM analog; 2.5 nM [^3H]MLA; nonspecific 1 μM MLA (footnote)
Measured inhibition at 0.1 µM, listed per entry for reference.
Answer format reminder: number followed by unit.

INSERT INTO results (compound, assayed_target, result) VALUES
  ('C(#Cc1ccc(-c2ccccc2)cc1)CCC[n+]1cccc2ccccc21', 'Rat Striatal Nicotinic Receptors ([^3H]MLA binding) (Rattus norvegicus)', '7%'),
  ('Cc1cccc[n+]1CCCC#Cc1ccc(-c2ccccc2)cc1', 'Rat Striatal Nicotinic Receptors ([^3H]MLA binding) (Rattus norvegicus)', '7%'),
  ('CCCCc1ccc(CCCC[n+]2cc(C)cc(C)c2)cc1', 'Rat Striatal Nicotinic Receptors ([^3H]MLA binding) (Rattus norvegicus)', '0%'),
  ('CCCCc1ccc(CCCC[n+]2ccccc2C)cc1', 'Rat Striatal Nicotinic Receptors ([^3H]MLA binding) (Rattus norvegicus)', '0%'),
  ('CCCCc1ccc(C#CCC[n+]2cccc(CC)c2)cc1', 'Rat Striatal Nicotinic Receptors ([^3H]MLA binding) (Rattus norvegicus)', '0%');

Asked: Could you share which inhibition at 0.1 µM value was measured for c1ccc(-c2ccc(CCCCC[n+]3ccc4ccccc4c3)cc2)cc1 ?
Given back: 6%

* * *

Assayed Target: Rat Striatal Nicotinic Receptors ([^3H]MLA binding) (Rattus norvegicus, UniProt Q05941)
Construct: Whole brain, excluding cortex and cerebellum, was homogenized; from tissue; host or cells: rat brain membranes (whole brain excluding cortex and cerebellum)
Protocol: Inhibition of [^3H]methyllycaconitine (MLA) binding to brain membranes
Protocol Conditions: % inhibition at 100 nM analog; 2.5 nM [^3H]MLA; nonspecific 1 μM MLA (footnote)
Decision: inhibition at 0.1 µM >= 3% yields TRUE, all other cases yield FALSE.

Some solved cases for reference:
INSERT INTO measurements (compound, cat) VALUES
  ('CCCCc1ccc(C#CCC[n+]2ccc(C)c(C)c2)cc1', 'TRUE'),
  ('Cc1ccc[n+](CCCCCCCCCCCCCc2cccnc2)c1', 'FALSE'),
  ('CCCCc1ccc(C#CCC[n+]2cc(C)cc(C)c2)cc1', 'FALSE'),
  ('Cc1cc[n+](CCCCCCCCCCCCCc2cccnc2)cc1C', 'FALSE'),
  ('Cc1cc[n+](CCCC#Cc2ccc(-c3ccccc3)cc2)c(C)c1', 'TRUE'),
  ('C(#Cc1ccc(-c2ccccc2)cc1)CCC[n+]1cccc(-c2ccccc2)c1', 'TRUE');

Asked: Say whether CCCCc1ccc(C#CCC[n+]2cccc(C)c2)cc1 shows inhibition at 0.1 µM of 3% or more.
Given back: FALSE

Asked: Say whether Cc1cc[n+](CCCCCCCCc2ccccc2)c(C)c1 shows inhibition at 0.1 µM of 3% or more.
Given back: TRUE

Asked: Say whether CCCCc1ccc(CCCC[n+]2cccc(C)c2)cc1 shows inhibition at 0.1 µM of 3% or more.
Given back: FALSE

Asked: Say whether CN1CCC[C@H]1c1ccc[n+](CCCC#Cc2ccc(-c3ccccc3)cc2)c1 shows inhibition at 0.1 µM of 3% or more.
Given back: TRUE

Asked: Say whether C(#Cc1ccc(-c2ccccc2)cc1)CCC[n+]1ccccc1 shows inhibition at 0.1 µM of 3% or more.
Given back: TRUE

* * *

Assayed Target: Rat Striatal Nicotinic Receptors ([^3H]MLA binding) (Rattus norvegicus, UniProt Q05941)
Construct: Whole brain, excluding cortex and cerebellum, was homogenized; from tissue; host or cells: rat brain membranes (whole brain excluding cortex and cerebellum)
Protocol: Inhibition of [^3H]methyllycaconitine (MLA) binding to brain membranes
Protocol Conditions: % inhibition at 100 nM analog; 2.5 nM [^3H]MLA; nonspecific 1 μM MLA (footnote)
Measured inhibition at 0.1 µM, listed per entry for reference.
# output: bare number, implied unit %

Use these answered entries as a reference point.
INSERT INTO assay_data (compound, result_number) VALUES
  ('CCCCc1ccc(C#CCC[n+]2cccc(CCCO)c2)cc1', 0),
  ('CCCCc1ccc[n+](CCCC#Cc2ccc(-c3ccccc3)cc2)c1', 9),
  ('Cc1cc[n+](CCCC#Cc2ccc(-c3ccccc3)cc2)cc1C', 8),
  ('Cc1cc(C)c[n+](CCCCCCCCCCCCCc2cccnc2)c1', 0),
  ('CCCCc1ccc(CCCC[n+]2ccc(C)cc2C)cc1', 0),
  ('CCCCc1ccc(CCCC[n+]2ccc(C)c(C)c2)cc1', 0),
  ('CCCCc1ccc(CCCC[n+]2cccc(CCCO)c2)cc1', 0),
  ('C(#Cc1ccc(-c2ccccc2)cc1)CCC[n+]1ccc2ccccc2c1', 6);

Asked: Could you share which inhibition at 0.1 µM value was measured for CCCCc1ccc(CCCC[n+]2ccc(C)cc2)cc1 ?
Given back: 0

Asked: Could you share which inhibition at 0.1 µM value was measured for Cc1cccc[n+]1CCCCCCCCc1ccccc1 ?
Given back: 0

Asked: Could you share which inhibition at 0.1 µM value was measured for Cc1ccc[n+](CCCCCc2ccc(-c3ccccc3)cc2)c1 ?
Given back: 7

Asked: Could you share which inhibition at 0.1 µM value was measured for Cc1ccc[n+](CCCC#Cc2ccc(-c3ccccc3)cc2)c1 ?
Given back: 2

* * *

Assayed Target: Rat Striatal Nicotinic Receptors ([^3H]NIC binding) (Rattus norvegicus, UniProt P09483+P12390)
Construct: Whole brain, excluding cortex and cerebellum, was homogenized; from tissue; host or cells: rat brain membranes (whole brain excluding cortex and cerebellum)
Sequence (P09483 31-630): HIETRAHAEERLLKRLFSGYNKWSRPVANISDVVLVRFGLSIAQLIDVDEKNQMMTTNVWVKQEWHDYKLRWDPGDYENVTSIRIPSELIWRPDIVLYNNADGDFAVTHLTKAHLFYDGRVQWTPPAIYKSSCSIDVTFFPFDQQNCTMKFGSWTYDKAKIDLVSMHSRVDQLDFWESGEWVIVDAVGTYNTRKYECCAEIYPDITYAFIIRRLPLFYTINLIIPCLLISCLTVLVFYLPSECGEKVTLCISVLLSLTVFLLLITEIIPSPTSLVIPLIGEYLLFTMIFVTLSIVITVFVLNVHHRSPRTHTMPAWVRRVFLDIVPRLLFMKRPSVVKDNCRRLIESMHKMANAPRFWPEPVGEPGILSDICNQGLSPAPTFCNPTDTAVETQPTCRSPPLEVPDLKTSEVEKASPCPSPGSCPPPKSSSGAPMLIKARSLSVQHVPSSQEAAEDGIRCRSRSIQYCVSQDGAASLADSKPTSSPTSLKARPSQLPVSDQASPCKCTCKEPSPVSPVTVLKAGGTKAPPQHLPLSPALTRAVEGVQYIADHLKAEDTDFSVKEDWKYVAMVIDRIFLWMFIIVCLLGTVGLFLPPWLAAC
Sequence (P12390 25-500): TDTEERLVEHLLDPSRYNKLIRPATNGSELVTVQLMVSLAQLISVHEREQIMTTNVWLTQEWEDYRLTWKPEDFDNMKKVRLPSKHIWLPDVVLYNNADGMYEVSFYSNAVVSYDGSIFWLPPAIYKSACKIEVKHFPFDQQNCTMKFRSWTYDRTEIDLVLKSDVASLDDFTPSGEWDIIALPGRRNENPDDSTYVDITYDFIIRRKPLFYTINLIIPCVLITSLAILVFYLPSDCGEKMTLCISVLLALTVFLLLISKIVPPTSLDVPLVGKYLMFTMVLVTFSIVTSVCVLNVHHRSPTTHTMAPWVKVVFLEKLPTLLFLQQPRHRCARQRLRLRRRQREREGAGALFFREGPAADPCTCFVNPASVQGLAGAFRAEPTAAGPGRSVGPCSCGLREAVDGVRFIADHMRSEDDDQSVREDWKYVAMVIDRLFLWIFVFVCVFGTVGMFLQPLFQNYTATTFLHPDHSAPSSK
Protocol: Inhibition of [^3H]nicotine binding to brain membranes
Protocol Conditions: % inhibition at 100 nM analog; 3 nM [^3H]NIC; nonspecific 10 μM nicotine
Reported Property: inhibition at 0.1 µM
Answer format reminder: number followed by unit.

INSERT INTO results (compound, result) VALUES
  ('CCCCc1ccc(CCCC[n+]2ccc(C)cc2C)cc1', '6%');

Asked: Could you share which inhibition at 0.1 µM value was measured for C(#Cc1ccc(-c2ccccc2)cc1)CCC[n+]1ccc2ccccc2c1 ?
Given back: 0%

Asked: Could you share which inhibition at 0.1 µM value was measured for Cc1cc(C)c[n+](CCCC#Cc2ccc(-c3ccccc3)cc2)c1 ?
Given back: 8%

Asked: Could you share which inhibition at 0.1 µM value was measured for CCCCc1ccc(CCCC[n+]2cccc(CCCO)c2)cc1 ?
Given back: 0%

Asked: Could you share which inhibition at 0.1 µM value was measured for Cc1ccc[n+](CCCCCc2ccc(-c3ccccc3)cc2)c1 ?
Given back: 4%

Asked: Could you share which inhibition at 0.1 µM value was measured for CCCCc1ccc(C#CCC[n+]2cccc(C)c2)cc1 ?
Given back: 0%

Asked: Could you share which inhibition at 0.1 µM value was measured for CCCCc1ccc(CCCC[n+]2ccc(C)c(C)c2)cc1 ?
Given back: 0%

Asked: Could you share which inhibition at 0.1 µM value was measured for CCCCc1ccc(C#CCC[n+]2ccc(C)c(C)c2)cc1 ?
Given back: 0%

Asked: Could you share which inhibition at 0.1 µM value was measured for Cc1cc[n+](CCCCCCCCCCCCCc2cccnc2)cc1C ?
Given back: 3%

Asked: Could you share which inhibition at 0.1 µM value was measured for CCCCc1ccc(CCCC[n+]2ccccc2C)cc1 ?
Given back: 0%

Asked: Could you share which inhibition at 0.1 µM value was measured for CCCCc1ccc(C#CCC[n+]2cccc(CCCO)c2)cc1 ?
Given back: 0%

Asked: Could you share which inhibition at 0.1 µM value was measured for CCCCc1ccc[n+](CCCC#Cc2ccc(-c3ccccc3)cc2)c1 ?
Given back: 0%

Asked: Could you share which inhibition at 0.1 µM value was measured for CCCCc1ccc(CCCC[n+]2cccc(C)c2)cc1 ?
Given back: 4%

Asked: Could you share which inhibition at 0.1 µM value was measured for CCCCc1ccc(C#CCC[n+]2cc(C)cc(C)c2)cc1 ?
Given back: 0%

Asked: Could you share which inhibition at 0.1 µM value was measured for Cc1ccc[n+](CCCCCCCCCCCCCc2cccnc2)c1 ?
Given back: 0%

Asked: Could you share which inhibition at 0.1 µM value was measured for Cc1cc[n+](CCCC#Cc2ccc(-c3ccccc3)cc2)cc1C ?
Given back: 0%

Asked: Could you share which inhibition at 0.1 µM value was measured for C(#Cc1ccc(-c2ccccc2)cc1)CCC[n+]1cccc2ccccc21 ?
Given back: 1%

Asked: Could you share which inhibition at 0.1 µM value was measured for CCCCc1ccc(CCCC[n+]2cc(C)cc(C)c2)cc1 ?
Given back: 0%

Asked: Could you share which inhibition at 0.1 µM value was measured for c1ccc(-c2ccc(CCCCC[n+]3ccc4ccccc4c3)cc2)cc1 ?
Given back: 0%

Asked: Could you share which inhibition at 0.1 µM value was measured for Cc1cc[n+](CCCC#Cc2ccc(-c3ccccc3)cc2)cc1 ?
Given back: 0%

Asked: Could you share which inhibition at 0.1 µM value was measured for Cc1cccc[n+]1CCCC#Cc1ccc(-c2ccccc2)cc1 ?
Given back: 2%

Asked: Could you share which inhibition at 0.1 µM value was measured for C(#Cc1ccc(-c2ccccc2)cc1)CCC[n+]1cccc(-c2ccccc2)c1 ?
Given back: 8%

Asked: Could you share which inhibition at 0.1 µM value was measured for CCCCc1ccc(C#CCC[n+]2ccc(C)cc2)cc1 ?
Given back: 6%

Asked: Could you share which inhibition at 0.1 µM value was measured for Cc1ccc[n+](CCCC#Cc2ccc(-c3ccccc3)cc2)c1 ?
Given back: 0%
